procedure_text: chemical genetic growth profiling, strain panel (AID 1159580);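 further: tested at 20 µM; growth read once vehicle control cultures reached saturation at 30 °C; lower values mean less growth of the strain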
test_conditions: S. cerevisiae deletion strains, growth OD, locus YNL067W, strain RPL9B
Out of some 5,500 compounds screened, about 2,000 (36%) were called active. Not shown: some 18% with an inconclusive outcome. No stated cut-off is given here; in the data, active means normalized growth mostly below about 0.91 (no sharp cut-off); inconclusive means no clear call, values can overlap the other calls; inactive means mostly above about 0.92. Some of the results follow.
Answer with one of the outcomes true = active, false = inactive

See these solved cases before continuing.
molecule: Nc1nc2ncc(=O)[nH]c2c(=O)[nH]1
class_name: false
//
molecule: Cc1c(Cl)cccc1Nc1ccccc1C(=O)O
class_name: true

Dear colleague, could you share the recorded outcome for `O=C(O)c1cc2cc(Cc3cccnc3)ccc2o1` when you have a moment?
false

Here is the next molecule: CO/N=C(\C(=O)NC1C(=O)N2C(C(=O)O)=C(COC(N)=O)CSC12)c1ccco1 (stereo not given)
true

# repeat for CC(C)C(C)/C=C/C(C)[C@H]1CCC2C3=CCC4CC(=O)CC[C@]4(C)C3CC[C@@]21C (stereo not given in full)
false

Could you do the same for O=C(C1CCCCC1)N1CC(=O)N2CCc3ccccc3C2C1 (stereo not given) , please?
false

Could you do the same for CC(C)C(C)/C=C/C(C)C1CCC2C3=CC=C4CC(O)CCC4(C)C3CCC21C (stereo not given) , please?
false

Consider next the molecule `Cc1ccc(C)c(OCCCC(C)(C)C(=O)O)c1` in the same way.
false

Follow-up entry: CC(=O)OC1CCC2(C)C(=CC=C3C2CCC2(C)C3CCC2C(C)/C=C/C(C)C(C)C)C1(C)C (stereo not given)
false

What about this molecule? C=C1C(C)C2C(Cc3ccccc3)NC(=O)C23OC(=O)/C=C/C(=O)CCCC(C)C/C=C/C3C1O (stereo not given)
false

----------
procedure_text: chemical genetic growth profiling, strain panel (AID 1159580);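 further: tested at 20 µM; growth read once vehicle control cultures reached saturation at 30 °C; lower values mean less growth of the strain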
test_conditions: S. cerevisiae deletion strains, growth OD, locus YPR135W, strain CTF4
About 2,000 (36%) of roughly 5,500 compounds were called active. About 18% were inconclusive and are not listed. Rule as the data show it: active = normalized growth mostly below about 0.91 (no sharp cut-off); inconclusive = no clear call, values can overlap the other calls; inactive = mostly above about 0.92. The list shows a part of the results.
Use one of these outcomes when replying: y = active, n = inactive

Completed entries (count: 8):
compound: O=C(c1ccccc1)c1cc2c(cc1Br)OCCO2
class_name: y
//
compound: OC(CN1CCN(c2nc3ccc(Cl)cc3s2)CC1)CN1CCCN(c2ncc(C(F)(F)F)cc2Cl)CC1 (centres undefined)
class_name: y
//
compound: Cc1ccc(CC(=O)O)cc1
class_name: n
//
compound: c1ccc(-c2cc3c(nn2)CCc2nonc2-3)cc1
class_name: n
//
compound: O=C(CSCc1cccc2ccccc12)NNC(=S)Nc1ccccc1Cl
class_name: n
//
compound: CN1c2ccccc2C(=O)NC1c1ccc([N+](=O)[O-])s1 (centres undefined)
class_name: n
//
compound: N#C/C(=C\c1ccc(Oc2ccccc2)nc1)S(=O)(=O)c1ccccc1
class_name: n
//
compound: O=[N+]([O-])c1ccc2c(c1)NC(c1ccc([N+](=O)[O-])s1)O2 (centres undefined)
class_name: y

Any idea what this test logged for `Cc1ccc(NS(C)(=O)=O)cc1N=Cc1ccc(Cl)c(Cl)c1` ?
n

Subsequent entry: `Cc1ccc(NC(=O)c2c(F)cccc2Cl)c(C(=O)Nc2ccc(F)cc2)c1`
n

How about this compound: `CCN(CC)CCNC(=O)c1c(-c2c(Cl)cccc2Cl)noc1C`
n

Also `CCCn1c(=O)c(C#N)cn(-c2ccc(Cl)cc2)c1=O` , if possible.
n

Further, for `N#CCC(=O)Nc1ccccn1` ?
n

Repeat with `CC(=O)c1cnn(-c2ccccc2)c1C`
n

Record: `Cc1cc(NC(=O)c2c(-c3c(Cl)cccc3Cl)noc2C)c([N+](=O)[O-])cc1C`
n

Same read-out for `N#Cc1c(N)oc(-c2ccco2)c1-c1ccco1` ?
n

`CSC(=NS(=O)(=O)c1ccccc1)SC` ?
n

Now the same for `N#C/C(=C\c1cccn1-c1ccc(OC(F)(F)F)cc1)S(=O)(=O)c1ccccc1`
y

How about `Clc1cccc(NC2=NCCS2)c1Cl` ?
n

Query `O=C(c1ccc(-c2ccccc2)cc1)c1cc2cc([N+](=O)[O-])ccc2o1` next
n

Do the same for `CC(/C=N\O)=N/Nc1ccccc1` please
n
